Entry source: ChEMBL document CHEMBL3745672

inhibition overview
ASSAYED_SYSTEM: Serine/threonine-protein kinase pim-1 (Homo sapiens)
EXPERIMENT_SUMMARY: Inhibition of PIM1 (unknown origin) at 10 uM
Answers without a unit are incomplete; give the number and then its unit.

Past entries and their recorded results:
Cn1c(=O)c(Oc2ccc(F)cc2F)cc2cnc(Nc3ccc(N4CCC(O)CC4)cc3)nc21 = 22%
Cn1c(=O)c(Oc2ccc(F)cc2F)cc2cnc(NCCc3ccccn3)nc21 = 3%
CN1CCN(c2ccc(Nc3ncc4cc(Oc5ccc(F)cc5F)c(=O)n(C)c4n3)cc2)CC1 = -4%
CN1CCN(CCCNc2ncc3cc(Oc4ccc(F)cc4F)c(=O)n(C)c3n2)CC1 = 0%

Now look at this entry.
Enquiry: Form field: reported inhibition of "Cn1c(=O)c(Oc2ccc(F)cc2F)cc2cnc(NC3CCN(S(C)(=O)=O)CC3)nc21"
Return: 5%

====

ASSAYED_SYSTEM: Mitogen-activated protein kinase 8 (Homo sapiens)
Sequence (P45983 whole entry): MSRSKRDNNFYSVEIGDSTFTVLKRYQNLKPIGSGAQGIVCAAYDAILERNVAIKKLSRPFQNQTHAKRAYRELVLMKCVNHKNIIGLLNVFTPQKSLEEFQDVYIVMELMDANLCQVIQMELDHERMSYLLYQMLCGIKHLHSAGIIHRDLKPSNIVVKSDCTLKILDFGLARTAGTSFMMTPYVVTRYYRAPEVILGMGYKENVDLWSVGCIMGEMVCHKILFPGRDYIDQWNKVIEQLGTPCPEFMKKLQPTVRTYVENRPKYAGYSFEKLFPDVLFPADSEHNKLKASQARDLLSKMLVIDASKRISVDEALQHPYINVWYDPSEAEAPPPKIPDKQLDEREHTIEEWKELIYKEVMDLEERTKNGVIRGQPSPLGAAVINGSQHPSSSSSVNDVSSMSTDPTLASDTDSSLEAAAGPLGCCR
EXPERIMENT_SUMMARY: Inhibition of JNK1 (unknown origin) expressed in HEK293 cells assessed as anisomycin-induced c-Jun phosphorylation at 10 uM incubated for 30 mins by Western blot analysis relative to anisomycin
Format: cell-based
Parameters: scale not given: the % may be the effect or the level left
PROPERTY_MEASURED: Activity (%)
# number only, unit % dropped from output

Enquiry: Form field: reported Activity of "Cn1c(=O)c(Oc2ccc(F)cc2F)cc2cnc(NC3CCNCC3)nc21"
Return: 119

Enquiry: // next record "Cn1c(=O)c(Oc2c(Cl)cccc2Cl)cc2cnc(Nc3ccc(N4CCCCC4)cc3)nc21"
Return: 108

Enquiry: // next record "Cn1c(=O)c(Oc2c(Cl)cccc2Cl)cc2cnc(NC3CCOCC3)nc21"
Return: 68

Enquiry: // next record Cn1c(=O)c(Oc2c(Cl)cccc2Cl)cc2cnc(N3CCCC(CO)C3)nc21 (stereo unspecified)
Return: 103

Enquiry: // next record Cn1c(=O)c(Oc2ccc(F)cc2F)cc2cnc(N3CCCC(O)C3)nc21 (stereo unspecified)
Return: 104

Enquiry: // next record "Cn1c(=O)c(Oc2c(Cl)cccc2Cl)cc2cnc(NCCN3CCOCC3)nc21"
Return: 114

Enquiry: // next record "Cn1c(=O)c(Oc2ccc(F)cc2F)cc2cnc(Nc3ccc(N4CCCC4)cc3)nc21"
Return: 108

Enquiry: // next record Cn1c(=O)c(Oc2c(Cl)cccc2Cl)cc2cnc(N3CCCC(O)C3)nc21 (stereo unspecified)
Return: 133

Enquiry: // next record "Cn1c(=O)c(Oc2ccc(F)cc2F)cc2cnc(NCCNS(C)(=O)=O)nc21"
Return: 67.5

====

inhibition overview
ASSAYED_SYSTEM: Rho-associated protein kinase 2 (Homo sapiens)
EXPERIMENT_SUMMARY: Inhibition of ROCK2 (unknown origin) at 10 uM
# number only, unit % dropped from output

Past entries and their recorded results:
Cn1c(=O)c(Oc2ccc(F)cc2F)cc2cnc(Nc3ccc(N4CCC(O)CC4)cc3)nc21 = 12
CN1CCN(c2ccc(Nc3ncc4cc(Oc5ccc(F)cc5F)c(=O)n(C)c4n3)cc2)CC1 = 14
Cn1c(=O)c(Oc2ccc(F)cc2F)cc2cnc(Nc3ccc(N4CCCCC4)cc3)nc21 = 5
CN1CCN(CCCNc2ncc3cc(Oc4ccc(F)cc4F)c(=O)n(C)c3n2)CC1 = 3
Cn1c(=O)c(Oc2c(Cl)cccc2Cl)cc2cnc(NC3CCOCC3)nc21 = 4
Cn1c(=O)c(Oc2ccc(F)cc2F)cc2cnc(NC3CCN(S(C)(=O)=O)CC3)nc21 = 6

Enquiry: Form field: reported inhibition of "CN1CCN(c2ccc(Nc3ncc4cc(Oc5c(Cl)cccc5Cl)c(=O)n(C)c4n3)cc2)CC1"
Return: 3

Enquiry: // next record "Cn1c(=O)c(Oc2ccc(F)cc2F)cc2cnc(NCCc3ccccn3)nc21"
Return: 3

Enquiry: // next record "CN(C)CCNc1ncc2cc(Oc3ccc(F)cc3F)c(=O)n(C)c2n1"
Return: 2
